Values were extracted from the supplement of paper PMC9170038.

Tested on: MS2 coat protein
methodSummary: apparent KD of MS2 coat protein; designed switch direction (-1 OFF switch, 1 ON switch): -1; higher = weaker reporter binding
measurementSetup: Eterna round: R95; input ligand: microRNA oligo, concentration not stated
Item-by-item account of apparent KD of MS2 coat protein
Answer format: numeric, nM implied, no suffix.

GGUCUGCGAGGAUAUACAUGAGGAUCACCCAUGUGCGAGAAACUAGUGAGGUCGAUUGGUAGAAGGCGCGGACG [Mat - Exclusion 3 - Mod of JL D83] (puzzle: Exclusion 3) | 113
AGGAAUGAAGGAUAUACAUGAGGAUCACCCAUGUAAAACAAGAGAUUUGAUGUAUAAUGUAGAAGGUCAAGAAG [JR_Exclusion3_Sub003] (puzzle: Exclusion 3) | 30.5

// below: apparent KD of MS2 coat protein requested for another sequence
Asked: Given the entry GUGCGGUGAGGAUAUACGUAGGUGAAAAUCUGUGUGCUCCUACAUGAGGAUCACCCAUGUAGAAGGCAUGUCAC [LRO-Excl2-15] (puzzle: Exclusion 2) , report its measured apparent KD of MS2 coat protein.
Given back: 14.7

====

System: MS2 coat protein
methodSummary: apparent KD of MS2 coat protein; higher = weaker reporter binding
measurementSetup: Eterna round: R107; input ligand: theophylline 20 uM
parameter: apparent KD of MS2 coat protein (nM)
Kindly provide the numeric value in nM only, without the unit symbol.

GCUUGCUUGUAAGGUUCUGUCCGGCGUCGUCGAGGACCGGUACGGCCGCCACUCGCGCGUUUACAUGAGGAUCACCCAUGUCAUG [theeternabot_exclusion_MS2_Trp_A_49] | 38.7
AGCAACAAGUCGGCCGCCACUCAUUUAACAUGAGGAUCACCCAUGUGAAUAACAUGGUUGUAAUAGAGGACCGGGACAGUUGCAU [JR_SSTryptoB_Sub016] | 283
UUUGAUUAGAGAAGGAGCGUGAUAUUUAUAUAGUGUGUAUGUACAUGAGGAUCACCCAUGUCACAGGUAGGUCGCUCUGAUAAGG [JR_Nu_ExcArginiB_Sub030] | 21.6
UUUUAAGGGAUCGGAGCUGGUAGCAGAGAUACCAGAGUAGUAAUGCUCCCUUGGCAGCUCAGUACAUGAGGAUCACCCAUGUUUU [Exclusion Theophylline A GF26] | 21
UGUAACAUGAGGAUCACCCAUGUGAGUGAUACCAGACUAGUAUUAGUCCCUUGGCAGCACGUUGGGCGAGUGUAUAGUCUAUGCG [Same State - Theophylline A (Freestyle 14)] | 113
GCACCAGGUACGGAUACCAGACGUUGCCAAACAGGGUGACAUGAGGAUCACCCAUGUACUGUCCCUUGGCAGCCGUACCUGGUGC [EThB NP+V+V2 #4 +-Same Structure] | 53

Asked: Lab note: need apparent KD of MS2 coat protein for UAACAUGAGGAUCACCCAUGUAUACUAAGUCGAGGACCGGUACGGCCGCCACUCGAAAUUGAAGAAUUGGCGGUAAAUGUAAGUA [JR_ExcTryptoA_Sub019] on MS2 coat protein, anyone have it?
Given back: 15.9

Asked: Query for MS2 coat protein: what apparent KD of MS2 coat protein does the record show for GAUUUAACAAAAGUUGGAUCAGUGGGUGAACGAGGACCGGUACGGCCGCCACUCGGACAUGAGGAUCACCCAUGUCCAUGUGAAA [AstrosExyTryA#19] ?
Given back: 167

Asked: Lookup: apparent KD of MS2 coat protein / MS2 coat protein / ACGAACGAUAGUGAUACCAGACGUACAUGAGGAUCACCCAUGUUAUACACAUGGUUUAUUGUCCCUUGGCAGCACGAUAAGUUCG [JR_ExcTheophyB_Sub004]
Given back: 263

Asked: // lookup apparent KD of MS2 coat protein | system=MS2 coat protein | key= UUAGAUAUGACAGAUACCAGCGUGUUGUUGAACAUGAGGAUCACCCAUGUAGUGAUCGAGCGCCCUUGGCAGCUGGUGUGUUUGG [7.Q]
Given back: 174

Asked: Give apparent KD of MS2 coat protein (MS2 coat protein) of the following sequence: AAUCUGUCGGGUGAUACCAGCCUCGGCACAUCUCGUGCCGAACAUGAGGAUCACCCAUGUGGCCCUUGGCAGCACAUGACAAAUC [Usreerso]
Given back: 801
